# study-target: PLIN3 Perilipin-3 (Homo sapiens)
# Construct: isoTOP-ABPP experiments performed in cell lysates (in vitro); endogenous in cells; host or cells: MDA-MB-231 soluble lysate
# Sequence (O60664 whole entry): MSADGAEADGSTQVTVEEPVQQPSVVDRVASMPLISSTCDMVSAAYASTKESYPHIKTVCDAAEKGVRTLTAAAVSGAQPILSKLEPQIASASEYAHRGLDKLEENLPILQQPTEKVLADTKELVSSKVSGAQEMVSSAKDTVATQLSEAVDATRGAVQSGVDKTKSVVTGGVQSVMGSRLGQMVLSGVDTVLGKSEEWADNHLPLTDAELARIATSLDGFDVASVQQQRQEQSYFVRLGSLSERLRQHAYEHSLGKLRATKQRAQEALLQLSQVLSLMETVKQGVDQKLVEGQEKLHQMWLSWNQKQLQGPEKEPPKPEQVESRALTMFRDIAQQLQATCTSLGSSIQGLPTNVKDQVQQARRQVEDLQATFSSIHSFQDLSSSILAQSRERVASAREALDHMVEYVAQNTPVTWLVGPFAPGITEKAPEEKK
# test-summary: competitive isoTOP-ABPP
# Type: binding
# Design: key: R = MS1 peak area ratio, DMSO (heavy) / compound-treated (light); capped at 20
# settings: 50 uM, 231 sol, in vitro
endpoint-name: isoTOP-ABPP reactivity ratio at lysine O60664_K257
Lab note: write the figure by itself, no unit.

Would you mind telling me what isoTOP-ABPP reactivity ratio at lysine O60664_K257 value was observed for COc1cc(CCC(=O)Oc2ccc([N+](=O)[O-])cc2[N+](=O)[O-])cc(OC)c1OC [fragment 33] ?
2.2

Another compound: O=C(CCc1cn(-c2ccccc2)nc1-c1ccccc1)Oc1ccc([N+](=O)[O-])cc1[N+](=O)[O-] [fragment 29]
3.5

Another compound: O=C(CCc1coc2cc(F)ccc2c1=O)Oc1c(F)c(F)c(F)c(F)c1F [fragment 26]
4.1

Another compound: CCn1cc(C(=O)Oc2c(F)c(F)c(F)c(F)c2F)c(=O)c2ccc(C)nc21 [fragment 28]
1.1

Another compound: O=C(Oc1ccc([N+](=O)[O-])cc1[N+](=O)[O-])C(c1ccccc1)c1ccccc1 [fragment 30, 2,4-Dinitrophenyl 2,2-diphenylacetate]
2.9

Another compound: O=C(CN1C(=O)c2ccccc2C1=O)Oc1c(F)c(F)c(F)c(F)c1F [fragment 27]
1.8

====

# study-target: TPMT Thiopurine S-methyltransferase (Homo sapiens, UniProt P51580)
# Construct: isoTOP-ABPP experiments performed in cell lysates (in vitro); endogenous in cells; host or cells: soluble proteome of human cancer cell lines (MDA-MB-231; Ramos and Jurkat also prepared)
# Sequence (P51580 1-245): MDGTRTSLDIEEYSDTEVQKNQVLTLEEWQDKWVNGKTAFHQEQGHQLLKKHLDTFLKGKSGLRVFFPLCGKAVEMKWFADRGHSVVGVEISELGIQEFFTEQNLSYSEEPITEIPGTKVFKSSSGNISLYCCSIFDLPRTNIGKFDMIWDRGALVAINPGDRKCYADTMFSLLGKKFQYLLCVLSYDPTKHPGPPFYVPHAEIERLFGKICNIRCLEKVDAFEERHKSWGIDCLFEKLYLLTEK
# test-summary: competitive isoTOP-ABPP
# Format: binding
# Parameters: key: R = MS1 peak area ratio, DMSO (heavy) / compound-treated (light)
# settings: 50 uM, 231 sol, in vitro
endpoint-name: isoTOP-ABPP reactivity ratio at lysine P51580_K32
Lab note: write the figure by itself, no unit.

Would you mind telling me what isoTOP-ABPP reactivity ratio at lysine P51580_K32 value was observed for O=C(Oc1c(F)c(F)c(F)c(F)c1F)c1ccc2ccccc2n1 [fragment 25] ?
2.9

Another molecule: CCn1cc(C(=O)Oc2c(F)c(F)c(F)c(F)c2F)c(=O)c2ccc(C)nc21 [fragment 28]
1.1

Another molecule: O=C(CN1C(=O)c2ccccc2C1=O)Oc1c(F)c(F)c(F)c(F)c1F [fragment 27]
1.3

====

Assign R value (DMSO/fragment) for probe 1 labeling to each entry below.
# study-target: OLA1 Obg-like ATPase 1 (Homo sapiens, UniProt Q9NTK5)
# Construct: endogenous in cells; host or cells: MDA-MB-231 (soluble fraction of lysate)
# test-summary: competitive isoTOP-ABPP
# Assay type: binding
# settings: Q9NTK5_K248; 50 uM, 231 sol, in vitro

Would you mind telling me what R value (DMSO/fragment) for probe 1 labeling value was observed for `Cn1cc(CC(=O)Oc2c(F)c(F)c(F)c(F)c2F)c2ccccc21` ?
1.0

Another compound: `O=C(Oc1c(F)c(F)c(F)c(F)c1F)c1cc(C(F)(F)F)cc(C(F)(F)F)c1`
1.0

Another compound: `O=C(CCc1cn(-c2ccccc2)nc1-c1ccccc1)Oc1c(F)c(F)c(F)c(F)c1F`
1.0

Another compound: O=C(Oc1c(F)c(F)c(F)c(F)c1F)C(c1ccccc1)c1ccccc1 [fragment 20, Pentafluorophenyl 2,2-diphenylacetate]
0.9

Another compound: `COc1cc(CCC(=O)Oc2c(F)c(F)c(F)c(F)c2F)cc(OC)c1OC`
1.0

====

# study-target: LMNA Prelamin-A/C (Homo sapiens)
# Construct: isoTOP-ABPP experiments performed in cell lysates (in vitro); endogenous in cells; host or cells: MDA-MB-231 soluble lysate
# Sequence (P02545 1-664): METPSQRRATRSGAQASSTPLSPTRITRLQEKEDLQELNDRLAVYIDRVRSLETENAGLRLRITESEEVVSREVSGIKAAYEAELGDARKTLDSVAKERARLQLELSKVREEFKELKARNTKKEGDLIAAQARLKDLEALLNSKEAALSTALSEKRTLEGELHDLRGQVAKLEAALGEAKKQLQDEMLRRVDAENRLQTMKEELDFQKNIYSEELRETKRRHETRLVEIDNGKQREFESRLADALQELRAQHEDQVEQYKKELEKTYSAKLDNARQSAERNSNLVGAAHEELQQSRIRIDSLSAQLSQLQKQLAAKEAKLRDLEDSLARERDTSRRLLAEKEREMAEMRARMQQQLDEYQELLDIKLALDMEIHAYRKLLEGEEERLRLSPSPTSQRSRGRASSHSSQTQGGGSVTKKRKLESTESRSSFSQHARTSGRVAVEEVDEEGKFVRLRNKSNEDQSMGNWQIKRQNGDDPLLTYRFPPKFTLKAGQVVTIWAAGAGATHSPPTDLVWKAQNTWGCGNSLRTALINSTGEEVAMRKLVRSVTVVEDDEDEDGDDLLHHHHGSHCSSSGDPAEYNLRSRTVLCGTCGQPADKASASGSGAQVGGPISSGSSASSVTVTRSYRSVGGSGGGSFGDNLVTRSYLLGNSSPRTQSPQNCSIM
# test-summary: competitive isoTOP-ABPP
# Assay type: binding
# settings: 50 uM, in vitro, sol, 231
endpoint-name: isoTOP-ABPP ratio (R) at liganded lysine P02545_K135

Would you mind telling me what isoTOP-ABPP ratio (R) at liganded lysine P02545_K135 value was observed for O=C(Oc1ccc([N+](=O)[O-])cc1[N+](=O)[O-])c1ccc(Oc2ccccc2)cc1 [fragment 39, 2,4-Dinitrophenyl 4-phenoxybenzoate] ?
1.0

Another compound: `O=C(Oc1ccc([N+](=O)[O-])cc1[N+](=O)[O-])C1CCN(C(=O)OCc2ccccc2)CC1`
1.2

Another compound: `O=C(CCc1coc2cc(F)ccc2c1=O)Oc1ccc([N+](=O)[O-])cc1[N+](=O)[O-]`
0.8

Another compound: `CC(C)(C)OC(=O)NCCCC(=O)Oc1ccc([N+](=O)[O-])cc1[N+](=O)[O-]`
1.1

Another compound: O=C(Oc1ccc([N+](=O)[O-])cc1[N+](=O)[O-])C(c1ccccc1)(c1ccccc1)c1ccccc1 [fragment 42, 2,4-Dinitrophenyl 2,2,2-triphenylacetate]
1.0

====

# study-target: SRP54 Signal recognition particle 54 kDa protein (Homo sapiens)
# Construct: isoTOP-ABPP experiments performed in cell lysates (in vitro); endogenous in cells; host or cells: soluble proteome of human cancer cell lines (MDA-MB-231, Ramos, Jurkat)
# Sequence (P61011 whole entry): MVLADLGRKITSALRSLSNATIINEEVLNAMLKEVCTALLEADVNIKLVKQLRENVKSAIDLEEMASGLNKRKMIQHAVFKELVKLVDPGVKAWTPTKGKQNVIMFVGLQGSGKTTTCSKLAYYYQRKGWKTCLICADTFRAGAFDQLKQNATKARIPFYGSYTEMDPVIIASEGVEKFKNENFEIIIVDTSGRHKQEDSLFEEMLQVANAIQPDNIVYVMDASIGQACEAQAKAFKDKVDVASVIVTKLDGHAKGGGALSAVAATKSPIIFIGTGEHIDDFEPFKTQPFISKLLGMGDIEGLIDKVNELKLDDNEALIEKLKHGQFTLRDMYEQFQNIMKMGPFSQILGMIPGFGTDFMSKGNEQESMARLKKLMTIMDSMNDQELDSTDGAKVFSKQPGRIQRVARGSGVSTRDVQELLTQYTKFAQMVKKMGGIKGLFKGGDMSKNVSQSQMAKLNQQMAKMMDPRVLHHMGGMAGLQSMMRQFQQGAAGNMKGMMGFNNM
# test-summary: competitive isoTOP-ABPP
# Type: binding
# settings: 50 uM, in vitro, sol, 231
endpoint-name: isoTOP-ABPP ratio (R) at liganded lysine P61011_K81
Lab note: write the figure by itself, no unit.

Would you mind telling me what isoTOP-ABPP ratio (R) at liganded lysine P61011_K81 value was observed for `O=C(Oc1ccc([N+](=O)[O-])cc1[N+](=O)[O-])c1ccc(-c2ccccc2)cc1` ?
0.9

Another molecule: O=C(Oc1ccc([N+](=O)[O-])cc1[N+](=O)[O-])C(c1ccccc1)(c1ccccc1)c1ccccc1 [fragment 42, 2,4-Dinitrophenyl 2,2,2-triphenylacetate]
0.9

Another molecule: O=C(Oc1ccc([N+](=O)[O-])cc1[N+](=O)[O-])c1ccc(Oc2ccccc2)cc1 [fragment 39, 2,4-Dinitrophenyl 4-phenoxybenzoate]
0.9

====

# study-target: PSME3 Proteasome activator complex subunit 3 (Homo sapiens)
# Construct: isoTOP-ABPP experiments performed in cell lysates (in vitro); endogenous in cells; host or cells: soluble proteome of human cancer cell lines (MDA-MB-231, Ramos, Jurkat)
# Sequence (P61289 whole entry, one chain of several): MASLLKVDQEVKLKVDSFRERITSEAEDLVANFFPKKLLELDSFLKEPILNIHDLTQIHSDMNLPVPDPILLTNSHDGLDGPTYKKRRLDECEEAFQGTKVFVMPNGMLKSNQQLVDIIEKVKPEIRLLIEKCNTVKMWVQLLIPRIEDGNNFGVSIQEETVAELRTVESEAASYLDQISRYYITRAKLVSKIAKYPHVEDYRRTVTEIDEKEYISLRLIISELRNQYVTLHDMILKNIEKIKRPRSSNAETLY
# test-summary: competitive isoTOP-ABPP
# Format: binding
# settings: P61289_K237; 50 uM, 231 sol, in vitro
Assign R value (DMSO/fragment) for probe 1 labeling to each entry below.
Lab note: write the figure by itself, no unit.

Would you mind telling me what R value (DMSO/fragment) for probe 1 labeling value was observed for `O=C(Oc1c(F)c(F)c(F)c(F)c1F)c1cc(C(F)(F)F)cc(C(F)(F)F)c1` ?
0.9

Another compound: `COc1cc(CCC(=O)Oc2c(F)c(F)c(F)c(F)c2F)cc(OC)c1OC`
0.5

Another compound: `Cn1cc(CC(=O)Oc2c(F)c(F)c(F)c(F)c2F)c2ccccc21`
1.1
